Data credit: patent US20020026052A1

# ASSAYED TARGET: Rat2 fibroblasts stably transformed with v-Src/Hu c-Src fusion gene (Homo sapiens, UniProt P12931, cells depend on it, form not given)
# Sequence (P12931 whole entry, change not shown, the tested form may be a part): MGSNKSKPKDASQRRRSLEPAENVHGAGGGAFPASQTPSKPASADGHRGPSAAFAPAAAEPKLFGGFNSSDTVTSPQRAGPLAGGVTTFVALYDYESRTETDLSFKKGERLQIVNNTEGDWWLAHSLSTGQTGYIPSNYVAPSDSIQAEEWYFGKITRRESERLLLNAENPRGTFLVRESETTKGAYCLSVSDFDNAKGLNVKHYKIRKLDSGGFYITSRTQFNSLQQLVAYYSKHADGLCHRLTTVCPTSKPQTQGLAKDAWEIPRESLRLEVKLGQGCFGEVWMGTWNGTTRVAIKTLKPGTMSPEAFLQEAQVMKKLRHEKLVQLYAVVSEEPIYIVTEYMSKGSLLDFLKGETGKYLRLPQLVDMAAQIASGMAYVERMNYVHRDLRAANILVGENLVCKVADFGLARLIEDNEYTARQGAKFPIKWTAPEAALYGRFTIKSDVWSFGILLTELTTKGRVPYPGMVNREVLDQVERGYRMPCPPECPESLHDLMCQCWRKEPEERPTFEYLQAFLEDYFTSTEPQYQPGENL
# ASSAY COMMENT: Anchorage Independent Src-transformed Fibroblast Proliferation Assay
# Assay type: cell-based, Rat
# TEST CONDITIONS: suspension growth, MTS reagent on Day 5; read-out: anch-indep src-tx fib IC50
MEASURED ATTRIBUTE: GI50

// below: answered molecules
COc1cc(Nc2c(C#N)cnc3cc(-c4ncccc4CN4CCOCC4)ccc23)c(Cl)cc1Cl: > 10 µM
COc1cc(Nc2c(C#N)cnc3cc(-c4ccc(CN5CCOCC5)n4C)ccc23)c(Cl)cc1Cl: 6 µM
COc1cc(Nc2c(C#N)cnc3cc(-c4cccc(CCN5CCOCC5)c4)ccc23)c(Cl)cc1Cl: 4.1 µM
COc1cc(Nc2c(C#N)cnc3cc(-c4sccc4C=O)ccc23)c(Cl)cc1Cl: > 10 µM

// moving on: another record for GI50
Would you kindly share the measured GI50 for COc1cc(Nc2c(C#N)cnc3cc(-c4ccc5ccccc5c4)ccc23)c(Cl)cc1Cl ? 6.9 µM

====

MEASURED ATTRIBUTE: melting point

// below: answered molecules
Cn1ccnc1Sc1ccc(Nc2c(C#N)cnc3cc(-c4ccc(CN5CCC(O)CC5)cn4)ccc23)cc1Cl: 194 to 196 °C
Cn1ccnc1Sc1ccc(Nc2c(C#N)cnc3cc(-c4ccc(CN5CCCCC5)o4)ccc23)cc1Cl: 214 to 215 °C
Cn1ccnc1Sc1ccc(Nc2c(C#N)cnc3cc(-c4ccc(CN5CCOCC5)cc4)ccc23)cc1Cl: 148 to 150 °C
CN1CCN(Cc2ccc(-c3ccc4c(Nc5ccc(Sc6nccn6C)c(Cl)c5)c(C#N)cnc4c3)nc2)CC1: 197 to 199 °C
Cn1ccnc1Sc1ccc(Nc2c(C#N)cnc3cc(-c4ccc(Cl)cn4)ccc23)cc1Cl: 205 to 207 °C
CCN1CCN(Cc2ccc(-c3ccc4c(Nc5ccc(Sc6nccn6C)c(Cl)c5)c(C#N)cnc4c3)cn2)CC1: 192 to 195 °C
COc1cc(Nc2c(C#N)cnc3cc(-c4ccc(C(=O)O)cc4)ccc23)c(Cl)cc1Cl: 282 to 283 °C
N#Cc1cnc2cc(-c3cc(CN4CCOCC4)c(CN4CCOCC4)s3)ccc2c1Nc1ccc(Oc2ccccc2)cc1: 158 to 160 °C

Would you kindly share the measured melting point for Cn1ccnc1Sc1ccc(Nc2c(C#N)cnc3cc(-c4ccc(CN5CCC(O)CC5)nc4)ccc23)cc1Cl ? 242 to 244 °C

====

Recorded log10 GI50 values for a group of molecules are listed next.
# ASSAYED TARGET: Rat2 fibroblasts stably transformed with v-Src/Hu c-Src fusion gene (Homo sapiens, UniProt P12931, cells depend on it, form not given)
# ASSAY COMMENT: Anchorage Independent Src-transformed Fibroblast Proliferation Assay
# Assay type: cell-based, Rat
# TEST CONDITIONS: suspension growth, MTS reagent on Day 5; read-out: anch-indep src-tx fib IC50
// units: µM (pre-log); metric: GI50; scale: log10

COc1cc(Nc2c(C#N)cnc3cc(-c4ccc(CN5CCOCC5)cc4)ccc23)c(Cl)cc1C: -0.14

Would you kindly share the measured log10 GI50 for COc1cc(Nc2c(C#N)cnc3cc(-c4ccc(C=O)cc4)ccc23)c(Cl)cc1Cl ? 0.59

Another molecule: COc1cc(Nc2c(C#N)cnc3cc(-c4cccc(CN5CCN(C)CC5)c4)ccc23)c(Cl)cc1Cl 0.15

Another molecule: COc1cc(Nc2c(C#N)cnc3cc(-c4ccc(CN5CCN(CCO)CC5)o4)ccc23)c(Cl)cc1Cl -0.54

Another molecule: COc1cc(Nc2c(C#N)cnc3cc(-c4ccc(CNCCS(=O)(=O)c5ccccc5)cc4)ccc23)c(Cl)cc1Cl 1.01

Another molecule: COc1cc(Nc2c(C#N)cnc3cc(-c4ccc[nH]4)ccc23)c(Cl)cc1Cl -0.25
